B1: library; numbered along this chain (parent)
chain: MNIQIGELAKRTACPVVTIRFYEQEGLLPPPGRSRGNFRLYGEEHVERLQFIRHCRSLDMPLSDVRTLLSYRKRPDQDCGEVNMLLDEHIRQVESRIGALLELKHHLVELREACSGARPAQSCGILQGLSDCVCDTRGTTAHPSD

Variants of: B1
Assay: sfGFP reporter fluorescence (15 h) (µM FITC); higher = stronger transcriptional activation
Conditions: library round: Round 0; ligand: 1 µM Pb
In this section, each of the variants is paired with its reported sfGFP reporter fluorescence.
API note: the answer field is a bare number with no unit suffix.

Before answering, review these 5 worked examples.
# macromolecule-sequence, readout-kind, experimental-value
data = [
    ("MNIQIGELAKRTACPVVTIRFYEQEGLLPPPGRSRGNFRLYGEEHVERLQFIRHCRSLDMPLSDVRTLLSYRKRPDQDCGEVNMLLDEHIRQVESRIGALLELKHHLVELREACSGARPAQSCGILQGLSDCVCSTRGTTAHPSD", "sfGFP reporter fluorescence", 0.0872),
    ("MNIQIPELAKRTACPVVTIRFYEQEGLLPPPGRSRGNFRLYGEEHVERLQFIRHCRSLDMPLSDVRTLLSYRKRPDQDCGEVNMLLDEHIRQVESRIGALLELKHHLVELREACSGARPAQSCGILQGLSDCVCDTRGTTAHPSD", "sfGFP reporter fluorescence", 0.0601),
    ("MNIQIGELAKRTACPVVTIRFYEQEGLLPPPGRSRGNFRLYGEEHVERLQFIRHCRSLDMPLSDVRTLLSYRKRPDQDCGEVNMLADEHIRQVESRIGALLELKHHLVELREACSGARPAQSCGILQGLSDCVCDTRGTTAHPSD", "sfGFP reporter fluorescence", 0.0647),
    ("MNIQIGELAKRTACPVVTIRFYEQEGNLPPPGRSRGNFRLYGEEHVERLQFIRHCRSLDMPLSDVRTLLSYRKRPDQDCGEVNMLLDEHIRQVESRIGALLELKHHLVELREACSGARPAQSCGILQGLSDCVCDTRGTTAHPSD", "sfGFP reporter fluorescence", 0.0616),
    ("MNIQIGELAKRTACPVVTIRFYEQEGLLPPPGRSRGNFRLYGEEHVERLQFIRHCRSLDMPLSDVRTLLSYRKRPDQDCGEVNMLLDEHIRQVESRIGALLELKHHLVELREACSGARPAQSCGILQNLSDCVCDTRGTTAHPSD", "sfGFP reporter fluorescence", 0.0704),
]

# ---- query variant ----
input: Using the record for MNIQIGELAKRTACPVVTIRFYEQEGLLPPPGRSRGNFRLYGEEHVERLQFIRHCRSLDMPLSKVRTLLSYRKRPDQDCGEVNMLLDEHIRQVESRIGALLELKHHCVELREACSGARPAQSCGILQILSDCVCDTRGTTAHPSD , report its sfGFP reporter fluorescence.
output: 4.78
